Ref: the MegaScale stability set (Tsuboyama et al. 2023)

In this section we review reported folding stability dG values for a set of variants.
B1: EEHEE_rd4_0647 (parent)
chain: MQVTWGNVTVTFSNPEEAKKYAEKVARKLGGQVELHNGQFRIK

Variants of: B1
Experiment: folding stability dG (cDNA display proteolysis); higher = more stable
Conditions: PBS, room temperature
// return numeric value only (unit: kcal/mol, not printed)

Sample answers from the record:
residue_change=T4N value=2.18
residue_change=A26G value=1.38

# input I'd like to know its folding stability dG. The variant in question is `L35S`
# output 2.04

# input Consider the variant `K20A` and give its measured folding stability dG.
# output 2.98

# input So what does the record say about folding stability dG for `V3C` ?
# output 1.8

# input Item under review: `E17W` . Reported folding stability dG?
# output 2.53

# input Find the recorded folding stability dG belonging to `F12Y` and report it.
# output 1.28

# input folding stability dG lookup needed for `F40Q` , thanks.
# output 0.812

# input Look up folding stability dG: `Q2T`
# output 3.09

# input Which value of folding stability dG has been reported for `M1R` in the records?
# output 2.57
